Target: JMJD1A (KDM3A) (Homo sapiens, UniProt Q9Y4C1)
Sequence (Q9Y4C1 1-1321): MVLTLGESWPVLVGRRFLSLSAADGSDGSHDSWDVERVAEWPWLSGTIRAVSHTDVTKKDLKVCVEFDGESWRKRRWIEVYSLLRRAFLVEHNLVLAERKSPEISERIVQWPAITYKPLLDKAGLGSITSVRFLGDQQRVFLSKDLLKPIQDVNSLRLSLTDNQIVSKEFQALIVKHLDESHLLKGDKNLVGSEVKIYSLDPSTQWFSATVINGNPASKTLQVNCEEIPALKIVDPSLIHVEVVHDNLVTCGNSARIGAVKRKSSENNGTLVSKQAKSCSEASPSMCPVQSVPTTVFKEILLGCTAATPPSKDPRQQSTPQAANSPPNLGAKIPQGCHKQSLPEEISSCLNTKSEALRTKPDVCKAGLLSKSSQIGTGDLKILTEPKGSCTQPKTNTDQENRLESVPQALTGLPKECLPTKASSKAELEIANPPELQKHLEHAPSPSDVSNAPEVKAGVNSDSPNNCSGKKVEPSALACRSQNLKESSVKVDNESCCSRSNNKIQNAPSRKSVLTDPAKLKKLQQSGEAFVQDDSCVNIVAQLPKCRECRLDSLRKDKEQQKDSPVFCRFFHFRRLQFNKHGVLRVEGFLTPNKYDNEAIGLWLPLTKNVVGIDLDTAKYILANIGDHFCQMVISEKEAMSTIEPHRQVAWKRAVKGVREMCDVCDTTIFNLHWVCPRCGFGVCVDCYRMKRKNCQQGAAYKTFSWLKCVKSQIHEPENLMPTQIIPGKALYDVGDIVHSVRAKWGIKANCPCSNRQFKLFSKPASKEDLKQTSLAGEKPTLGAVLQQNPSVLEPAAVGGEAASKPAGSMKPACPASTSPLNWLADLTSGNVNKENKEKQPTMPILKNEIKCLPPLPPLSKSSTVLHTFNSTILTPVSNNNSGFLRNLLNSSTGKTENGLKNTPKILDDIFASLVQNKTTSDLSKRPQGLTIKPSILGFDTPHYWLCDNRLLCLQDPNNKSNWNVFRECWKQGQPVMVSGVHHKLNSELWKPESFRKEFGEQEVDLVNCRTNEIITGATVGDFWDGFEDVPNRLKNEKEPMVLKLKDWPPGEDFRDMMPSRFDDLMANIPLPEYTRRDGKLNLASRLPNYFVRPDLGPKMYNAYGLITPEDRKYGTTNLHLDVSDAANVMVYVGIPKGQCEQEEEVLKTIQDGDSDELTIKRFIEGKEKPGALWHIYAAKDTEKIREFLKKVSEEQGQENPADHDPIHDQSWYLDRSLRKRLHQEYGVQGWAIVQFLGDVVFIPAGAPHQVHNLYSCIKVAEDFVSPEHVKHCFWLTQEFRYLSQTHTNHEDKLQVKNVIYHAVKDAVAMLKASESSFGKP
Test: KDM AlphaScreen assay, JMJD1A
pIC50: −log10 of the molar value.
PROPERTY NAME: pIC50

Requested field: pIC50. Item: CC(C)(C)OC(=O)c1ccc(-n2[nH]cc(-n3ccnn3)c2=O)nc1
< 4.70
